Protocol: In Vitro Microsome Stability Assay (monkey)
Type: in vitro ADME
Study conditions: monkey liver microsomes, 30 min w/ NADPH
Experimental: Potassium phosphate (423 μL of a 0.1 M solution) was added to 8-strip deep well tubes followed by human, mouse, rat, or monkey microsomes (25 μL of a 20 mg/mL solution). The tubes were then placed on ice and the test article (2 μL of a 0.25 mM solution in DMSO) was added. […] Liver microsome stability is assessed by the % remaining of compound at 30 min which is calculated using the following equation: [(AUCanalyteT=30/AUCIS)/(AUCanalyteT=0/AUCIS)]*100 […]
Observed property: Liver Microsome Stability-% Left after 30 min w/ NADPH (%) Monkey

Here are 5 compounds together with their reported answers.
- Smiles str: "COc1cc(F)ccc1N1CCN(S(=O)(=O)N2CCCN([C@@H](C)C3CCCCC3)CCCN(S(=O)(=O)c3ccc(N(C)C)cc3)C[C@H](C)C2)CC1"
  Readout value: 77.9
- Smiles str: "C[C@H]1CN(S(=O)(=O)c2ccc(N(C)C)cc2)CCCN(CCC2CC2)CCCN(S(=O)(=O)N2CCc3cc(Cl)ccc3C2)C1"
  Readout value: 0.15
- Smiles str: "COc1cc(F)ccc1N1CCN(S(=O)(=O)N2CCCN(CC3CCCCC3)CCCN(S(=O)(=O)c3ccc(N(C)C)cc3)CC3(CC3)C2)CC1"
  Readout value: 7.72
- Smiles str: "CCc1ccc(CNS(=O)(=O)N2CCCN(CC3CCCCC3)CCCN(S(=O)(=O)c3ccc(N(C)C)cc3)C[C@H](C)C2)cc1"
  Readout value: 0.01
- Smiles str: "C[C@H]1CN(S(=O)(=O)c2ccc(N(C)C)cc2)CCCN(CC2CCCCC2)CCCN(S(=O)(=O)N2CCN(C(=O)OC(C)(C)C)CC2)C1"
  Readout value: 1.26

a = COc1ccc(N2CCN(S(=O)(=O)N3CCCN(CC4CCCCC4)CCCN(S(=O)(=O)c4ccc(N(C)C)cc4)C[C@H](C)C3)CC2)cc1F
b = C[C@H]1CN(S(=O)(=O)c2ccc(N(C)C)cc2)CCCN(CC2CCCCC2)CCCN(S(=O)(=O)N2CCN(c3ccccc3OC(F)(F)F)CC2)C1
Dear colleague, could you let me know whether a or b has the lower recorded Liver Microsome Stability-% Left after 30 min w/ NADPH (%) Monkey? Thanks. Reply briefly: the label of your chosen item.
a

I = C[C@H]1CN(S(=O)(=O)c2ccc(N(C)C)cc2)CCCN(CC2CCCC2)CCCN(S(=O)(=O)N2CCc3cc(Cl)ccc3C2)C1
II = C[C@H]1CN(S(=O)(=O)Cc2ccccc2)CCCN(CC2CCCCC2)CCCN(S(=O)(=O)N2CCc3cc(Cl)ccc3C2)C1
Which value of Liver Microsome Stability-% Left after 30 min w/ NADPH (%) Monkey is greater, the one for I or the one for II ? Reply briefly: the label of your chosen item.
I

* * *

Protocol: In Vitro Microsome Stability Assay (rat)
Assay type: in vitro ADME
Study conditions: rat liver microsomes, 30 min w/ NADPH
Observed property: Liver Microsome Stability-% Left after 30 min w/ NADPH (%) Rat

- Smiles str: "C[C@H]1CN(CC2CCCCC2)C[C@H](C)CN(S(=O)(=O)N2CCc3cc(Cl)ccc3C2)C[C@@H](C)CN(S(=O)(=O)c2ccc(N(C)C)cc2)C1"
  Readout value: 51.1

P = C[C@H]1CN(S(=O)(=O)c2ccc(N(C)C)cc2)CCCN(CC2CCCCC2)CCCN(S(=O)(=O)N2CCNCC2)C1
Q = CC(C)CCN1CCCN(S(=O)(=O)c2ccc(N(C)C)cc2)C[C@H](C)CN(S(=O)(=O)N2CCc3cc(Cl)ccc3C2)CCC1
Which value of Liver Microsome Stability-% Left after 30 min w/ NADPH (%) Rat is greater, the one for P or the one for Q ? Reply briefly: the label of your chosen item.
P

* * *

Tested on: IL-2
Protocol: Human PBMC Cytokine Assay: IL-2
Format: cell-based
Study conditions: anti-CD3/CD28 stimulation, 24 hours
Observed property: IC50 (nM)

I = COc1cc(F)ccc1N1CCN(S(=O)(=O)N2CCCN(CC3CCCCC3)CCCN(S(=O)(=O)c3ccc(N(C)C)cc3)C[C@H](C)C2)CC1 [A137]
II = Cc1ccccc1CN1CCCN(S(=O)(=O)c2ccc(N(C)C)cc2)C[C@H](C)CN(S(=O)(=O)N2CCc3cc(Cl)ccc3C2)CCC1 [A133]
Dear colleague, could you let me know whether I or II has the lower recorded IC50? Thanks. Reply briefly: the label of your chosen item.
I
(I: 8 nM, II: 197 nM)

A = COc1cc(F)ccc1N1CCN(S(=O)(=O)N2CCCN(CC3CCCCC3)CCCN(S(=O)(=O)c3ccc(N(C)C)cc3)C[C@H](C)C2)C[C@H]1C [A177]
B = C[C@H]1CN(S(=O)(=O)c2ccc(N(C)C)cc2)CCCN(CC2CCCCC2)CCCN(S(=O)(=O)N2CCc3cc(Cl)ccc3C2)C1 [A87]
Dear colleague, could you let me know whether A or B has the lower recorded IC50? Thanks. Reply briefly: the label of your chosen item.
A

* * *

Test system: target signal sequences plus 10 amino acids fused to Gaussia Luciferase
Protocol: Transiently Expressed Dox Induced Signal Sequence-Gluc Assay
Format: cell-based
Study conditions: Target VISTA signal peptide +10 amino acids; read-out: Signal Sequence-Gluc potency
pIC50: −log10 of the molar value.
Observed property: pIC50

- Molecule: "C[C@H]1CN(S(=O)(=O)c2ccc(N(C)C)cc2)CCCN(CC2CCCCC2)CCCN(S(=O)(=O)N2CCc3cc(Cl)ccc3C2)C1 [A87]"
  Observed property: "pIC50"
  Readout value: 6.68

A = COc1cc(F)ccc1N1CCN(S(=O)(=O)N2CCCN(CC3CCCCC3)CCCN(S(=O)(=O)c3ccc(N(C)C)cc3)C[C@H](C)C2)CC1 [A137]
B = C[C@H]1CN(S(=O)(=O)c2ccc(N(C)C)cc2)CCCN(CC2CCCCC2)CCCN(S(=O)(=O)N2CCc3c(C#N)cccc3C2)C1 [A151]
Which value of pIC50 is greater, the one for A or the one for B ? Reply briefly: the label of your chosen item.
A
(A: 6.82, B: 6.04)

* * *

Protocol: In Vitro Microsome Stability Assay (rat)
Format: in vitro ADME
Study conditions: rat liver microsomes, 30 min w/ NADPH
Observed property: Liver Microsome Stability-% Left after 30 min w/ NADPH (%) Rat

- Compound: "COc1c(F)cccc1N1CCN(S(=O)(=O)N2CCCN(CC3CCCCC3)CCCN(S(=O)(=O)c3ccc(N(C)C)cc3)C[C@H](C)C2)CC1"
  Output unit: "%"
  Readout value: 6.28

A = Cc1cccc(C)c1N1CCN(S(=O)(=O)N2CCCN(CC3CCCCC3)CCCN(S(=O)(=O)c3ccc(N(C)C)cc3)C[C@H](C)C2)CC1
B = COCCN1CCCN(S(=O)(=O)c2ccc(N(C)C)cc2)C[C@H](C)CN(S(=O)(=O)N2CCc3cc(Cl)ccc3C2)CCC1
Dear colleague, could you let me know whether A or B has the lower recorded Liver Microsome Stability-% Left after 30 min w/ NADPH (%) Rat? Thanks. Reply briefly: the label of your chosen item.
B
(B: 0.56%, A: 66.1%)

* * *

Protocol: In Vitro Microsome Stability Assay (mouse)
Assay type: in vitro ADME
Study conditions: mouse, 30 min, NADPH
Observed property: Liver Microsome Stability-% Left after 30 min w/ NADPH (%) Mouse

P = C=C1CN(S(=O)(=O)c2ccc(N(C)C)cc2)CCCN(CC2CCCCC2)CCCN(S(=O)(=O)N2CC=C(c3ccccc3Cl)CC2)C1 [A73]
Q = CN(C)c1ccc(S(=O)(=O)N2CCCN(CC3CCCCC3)CCCN(S(=O)(=O)N3CCC(O)CC3)CC3(CC3)C2)cc1 [A28]
R = C=C1CN(S(=O)(=O)c2ccc(N(C)C)cc2)CCCN(CC2CCCCC2)CCCN(S(=O)(=O)N2CCC(c3ncccn3)CC2)C1 [A81]
S = Cc1cc(N(C)C)ccc1S(=O)(=O)N1CCCN(CC2CCCCC2)CCCN(S(=O)(=O)N2CCCCC2)CC2(CC2)C1 [A30]
T = CN(C)c1ccc(S(=O)(=O)N2CCCN(CC3CCCCC3)CCCN(S(=O)(=O)N3CCC(c4ccccc4)CC3)C/C(=N/O)C2)cc1 [A75]
Please put the entries in order of rising Liver Microsome Stability-% Left after 30 min w/ NADPH (%) Mouse. Provide the labels, sequenced as the question asks.
Q, R, S, T, P

P = C=C1CN(S(=O)(=O)c2ccc(N(C)C)cc2)CCCN(CC2CCCCC2)CCCN(S(=O)(=O)N2CCc3cc(OC)ccc3C2)C1 [A71]
Q = O=C(c1ccc(Cl)cc1)N1CCCN(S(=O)(=O)N2CCCCC2)CC2(CC2)CN(S(=O)(=O)N2CCCCC2)CCC1 [A24]
Dear colleague, could you let me know whether P or Q has the lower recorded Liver Microsome Stability-% Left after 30 min w/ NADPH (%) Mouse? Thanks. Reply briefly: the label of your chosen item.
Q
